TARGET DESC: EGFR (human) (UniProt P00533)
Sequence (P00533 whole entry, looked up): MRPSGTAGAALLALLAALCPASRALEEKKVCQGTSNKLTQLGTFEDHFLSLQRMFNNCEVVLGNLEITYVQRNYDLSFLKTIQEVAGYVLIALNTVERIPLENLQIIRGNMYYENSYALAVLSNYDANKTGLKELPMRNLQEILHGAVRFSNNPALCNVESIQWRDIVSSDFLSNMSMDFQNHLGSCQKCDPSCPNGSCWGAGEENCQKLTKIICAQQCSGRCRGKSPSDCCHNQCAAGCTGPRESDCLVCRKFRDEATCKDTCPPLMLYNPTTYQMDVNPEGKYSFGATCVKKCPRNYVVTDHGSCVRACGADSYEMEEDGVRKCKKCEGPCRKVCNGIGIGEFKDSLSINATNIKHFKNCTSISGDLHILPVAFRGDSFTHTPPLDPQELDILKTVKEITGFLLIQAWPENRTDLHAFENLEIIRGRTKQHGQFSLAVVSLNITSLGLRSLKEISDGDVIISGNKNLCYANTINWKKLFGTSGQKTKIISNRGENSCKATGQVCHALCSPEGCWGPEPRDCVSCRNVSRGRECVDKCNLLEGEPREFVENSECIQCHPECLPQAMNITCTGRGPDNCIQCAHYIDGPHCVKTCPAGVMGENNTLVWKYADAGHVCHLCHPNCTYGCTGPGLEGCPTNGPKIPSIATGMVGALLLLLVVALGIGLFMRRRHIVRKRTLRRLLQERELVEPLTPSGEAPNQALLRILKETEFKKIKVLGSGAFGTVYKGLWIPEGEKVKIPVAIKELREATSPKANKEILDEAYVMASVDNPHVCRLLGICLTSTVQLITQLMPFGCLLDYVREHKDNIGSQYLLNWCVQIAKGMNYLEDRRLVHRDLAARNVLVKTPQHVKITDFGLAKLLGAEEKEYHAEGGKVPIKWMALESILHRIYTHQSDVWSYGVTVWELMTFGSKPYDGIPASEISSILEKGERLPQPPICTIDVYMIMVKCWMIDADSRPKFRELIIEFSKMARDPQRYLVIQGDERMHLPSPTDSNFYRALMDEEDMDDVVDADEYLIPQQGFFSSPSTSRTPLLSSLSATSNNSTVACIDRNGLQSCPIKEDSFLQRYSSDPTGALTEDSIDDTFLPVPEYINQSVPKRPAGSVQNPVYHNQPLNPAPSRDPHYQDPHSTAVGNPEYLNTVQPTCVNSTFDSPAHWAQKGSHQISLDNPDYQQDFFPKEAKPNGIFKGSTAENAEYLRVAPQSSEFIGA
PROPERTY LABEL: Ki (nM)

a. c1ccc(CCNc2ccnc3[nH]c4ccccc4c23)cc1
b. Clc1cccc(CNc2ccnc3[nH]c4ccccc4c23)c1
Task for the reader: decide whether a or b has the larger Ki. # respond with the chosen item's label a
(a: 1040 nM, b: 99 nM)
